Data origin: patent US9944608B2

Reported SETFA: percentage damage caused to the plant (five point scale) values for the following compounds.
Test system: Setaria faberi (SETFA)
Test: B1 Post-emergence efficacy, glasshouse pot test
Format: in vivo
Conditions: post-emergence application, 1000 g/ha, evaluated after 13 days
Protocol: B1 Post-Emergence Efficacy Seeds of a variety of test species are sown in standard soil in pots:—Solanum nigrum (SOLNI), Amaranthus retoflexus (AMARE), Setaria faberi (SETFA), Alopecurus myosuroides (ALOMY), Echinochloa crus-galli (ECHCG), Ipomoea hederacea (IPOHE), Lolium perenne (LOLPE). […] After 13 days, the test is evaluated for the percentage damage caused to the plant. The biological activities are assessed on a five point scale (5=80-100%; 4=60-79%; 3=40-59%; 2=20-39%; 1=0-19%). […]

Here's what some known entries look like.
CCc1nn(C)c(=O)c(-c2c(C(F)(F)F)ccc(Cl)c2OCc2ccccc2)c1O :: 5 (5=80-100%)
Cc1nn(C)c(=O)c(-c2c(C(F)(F)F)ccc(Cl)c2OCc2ccccc2)c1O :: 5 (5=80-100%)
CCc1nn(C)c(=O)c(-c2c(F)ccc(Cl)c2OCc2ccccc2)c1O :: 3 (3=40-59%)
Cc1nn(C)c(=O)c(-c2c(C(F)(F)F)ccc(F)c2OCc2ccccc2)c1O :: 5 (5=80-100%)
Cn1nc(C2CC2)c(O)c(-c2c(C(F)(F)F)ccc(Cl)c2OCc2ccccc2)c1=O :: 5 (5=80-100%)
CN(C)c1nn(C)c(=O)c(-c2c(F)ccc(Cl)c2OCc2ccccc2)c1O :: 3 (3=40-59%)
CC1=NN(C)C(=O)C(c2c(Cl)ccc(Cl)c2OCc2ccccc2)C1=O (centres unmarked) :: 5 (5=80-100%)

Please report the recorded SETFA: percentage damage caused to the plant (five point scale) for Cn1nc([S+](C)[O-])c(O)c(-c2c(F)ccc(Cl)c2OCc2ccccc2)c1=O (centres unmarked) .
1 (1=0-19%)

----------
The following compounds are listed with their measured AMARE: percentage damage caused to the plant (five point scale) values.
Tested on: Amaranthus retoflexus (AMARE)
Test: B1 Post-emergence efficacy, glasshouse pot test
Assay type: in vivo
Conditions: post-emergence application, 1000 g/ha, evaluated after 13 days

Some solved cases for reference:
Cn1nc(C(F)(F)F)c(O)c(-c2c(Cl)ccc(Cl)c2OCc2ccccc2)c1=O [Compound 1.075] :: 4 (4=60-79%)
CC1=NN(C)C(=O)C(c2c(Cl)ccc(Cl)c2OCc2ccccc2)C1=O (centres unmarked) [Compound 1.001] :: 5 (5=80-100%)

Looking for the measured AMARE: percentage damage caused to the plant (five point scale) of CSc1nn(C)c(=O)c(-c2c(F)ccc(Cl)c2OCc2ccccc2)c1O [Compound 1.084] , can you help?
3 (3=40-59%)

What about this compound? Cc1nn(C)c(=O)c(-c2c(F)ccc(F)c2OCc2ccccc2)c1O [Compound 1.016]
5 (5=80-100%)

Queued: Cc1nn(C)c(=O)c(-c2c(Cl)ccc(Cl)c2OCc2ccc(Cl)c(Cl)c2)c1O [Compound 1.005]
5 (5=80-100%)

Please answer likewise for Cn1nc(N)c(O)c(-c2c(F)ccc(Cl)c2OCc2ccccc2)c1=O [Compound 1.078]
3 (3=40-59%)

Also COc1ccc(COc2c(Cl)ccc(Cl)c2-c2c(O)c(C)nn(C)c2=O)cc1 [Compound 1.067] ?
2 (2=20-39%)

Next compound up: Cn1nc([S+](C)[O-])c(O)c(-c2c(F)ccc(Cl)c2OCc2ccccc2)c1=O (centres unmarked) [Compound 1.080]
2 (2=20-39%)

Same for Cn1nc(S(C)(=O)=O)c(O)c(-c2c(F)ccc(Cl)c2OCc2ccccc2)c1=O [Compound 1.079]
1 (1=0-19%)

Query Cn1nc(C2CC2)c(O)c(-c2c(Cl)ccc(Cl)c2OCc2ccccc2)c1=O [Compound 1.009] next
5 (5=80-100%)

Repeat with Cn1nc([S+](C)[O-])c(O)c(-c2c(Cl)ccc(Cl)c2OCc2ccccc2)c1=O (centres unmarked) [Compound 1.083]
1 (1=0-19%)

Note, next up: Cn1nc(S(C)(=O)=O)c(O)c(-c2c(Cl)ccc(Cl)c2OCc2ccccc2)c1=O [Compound 1.082]
1 (1=0-19%)

Then what about the compound CCc1nn(C)c(=O)c(-c2c(C(F)(F)F)ccc(Cl)c2OCc2ccccc2)c1O [Compound 1.072] ?
2 (2=20-39%)

Same for Cn1nc(C(F)(F)F)c(O)c(-c2c(F)ccc(Cl)c2OCc2ccccc2)c1=O [Compound 1.074]
5 (5=80-100%)

Please do the same for Cn1nc(C2CC2)c(O)c(-c2c(C(F)(F)F)ccc(Cl)c2OCc2ccccc2)c1=O [Compound 1.070] as well.
5 (5=80-100%)

Please answer likewise for Cn1nc(C2CC2)c(O)c(-c2c(F)ccc(Cl)c2OCc2ccccc2)c1=O [Compound 1.012]
5 (5=80-100%)

Now try CCc1nn(C)c(=O)c(-c2c(Cl)ccc(Cl)c2OCc2ccccc2)c1O [Compound 1.007] .
5 (5=80-100%)

----------
Test system: Echinochloa crus-galli (ECHCG)
Assay: B1 Post-emergence efficacy, glasshouse pot test
Format: in vivo
Details: post-emergence application, 1000 g/ha, evaluated after 13 days
Measured ECHCG: percentage damage caused to the plant (five point scale), listed per entry.

Cn1nc(C(F)(F)F)c(O)c(-c2c(F)ccc(Cl)c2OCc2ccccc2)c1=O :: 5 (5=80-100%)

Would you mind telling me what ECHCG: percentage damage caused to the plant (five point scale) value was observed for `Cn1nc(C(F)(F)F)c(O)c(-c2c(Cl)ccc(Cl)c2OCc2ccccc2)c1=O` ?
5 (5=80-100%)

Field entry: `CCc1nn(C)c(=O)c(-c2c(C(F)(F)F)ccc(Cl)c2OCc2ccccc2)c1O`
4 (4=60-79%)

And for `CCc1nn(C)c(=O)c(-c2c(Cl)ccc(Cl)c2OCc2ccccc2)c1O` ?
5 (5=80-100%)

Do the same for `CSc1nn(C)c(=O)c(-c2c(F)ccc(Cl)c2OCc2ccccc2)c1O` please
1 (1=0-19%)

Record: `Cn1nc(C(F)(F)F)c(O)c(-c2c(C(F)(F)F)ccc(Cl)c2OCc2ccccc2)c1=O`
4 (4=60-79%)

Same lookup for `Cn1nc(N)c(O)c(-c2c(Cl)ccc(Cl)c2OCc2ccccc2)c1=O` , please.
2 (2=20-39%)

----------
System: Ipomoea hederacea (IPOHE)
Test: B1 Post-emergence efficacy, glasshouse pot test
Type: in vivo
Settings: post-emergence application, 1000 g/ha, evaluated after 13 days
Parameter IPOHE: percentage damage caused to the plant (five point scale): see the listing below.

Recorded IPOHE: percentage damage caused to the plant (five point scale), per entry:
Cn1nc(S(C)(=O)=O)c(O)c(-c2c(F)ccc(Cl)c2OCc2ccccc2)c1=O :: 5 (5=80-100%)
Cn1nc(C(F)(F)F)c(O)c(-c2c(C(F)(F)F)ccc(Cl)c2OCc2ccccc2)c1=O :: 5 (5=80-100%)
CCn1nc(C)c(O)c(-c2c(F)ccc(Cl)c2OCc2ccccc2)c1=O :: 5 (5=80-100%)
CC1=NN(C)C(=O)C(c2c(Cl)ccc(Cl)c2OCc2ccccc2)C1=O (centres unmarked) :: 5 (5=80-100%)
Cn1nc(C2CC2)c(O)c(-c2c(C(F)(F)F)ccc(Cl)c2OCc2ccccc2)c1=O :: 5 (5=80-100%)

Value lookup for IPOHE: percentage damage caused to the plant (five point scale); key = `Cn1nc(N)c(O)c(-c2c(F)ccc(Cl)c2OCc2ccccc2)c1=O`
4 (4=60-79%)

----------
Tested on: Echinochloa crus-galli (ECHCG)
Assay: B1 Post-emergence efficacy, glasshouse pot test
Format: in vivo
Conditions: post-emergence application, 1000 g/ha, evaluated after 13 days
Protocol: B1 Post-Emergence Efficacy Seeds of a variety of test species are sown in standard soil in pots:—Solanum nigrum (SOLNI), Amaranthus retoflexus (AMARE), Setaria faberi (SETFA), Alopecurus myosuroides (ALOMY), Echinochloa crus-galli (ECHCG), Ipomoea hederacea (IPOHE), Lolium perenne (LOLPE). […] After 13 days, the test is evaluated for the percentage damage caused to the plant. The biological activities are assessed on a five point scale (5=80-100%; 4=60-79%; 3=40-59%; 2=20-39%; 1=0-19%). […]
readout kind: ECHCG: percentage damage caused to the plant (five point scale)

Use the examples below as a reference point.
Cc1nn(C)c(=O)c(-c2c(C(F)(F)F)ccc(F)c2OCc2ccccc2)c1O :: 5 (5=80-100%)
CN(C)c1nn(C)c(=O)c(-c2c(F)ccc(Cl)c2OCc2ccccc2)c1O :: 4 (4=60-79%)
Cc1nn(C)c(=O)c(-c2c(F)ccc(F)c2OCc2ccccc2)c1O :: 5 (5=80-100%)

What value of measured ECHCG: percentage damage caused to the plant (five point scale) is listed for `Cc1nn(C)c(=O)c(-c2c(Cl)cc(Cl)cc2OCc2ccccc2)c1O` ?
3 (3=40-59%)
